- Measured On: Luciferin 4-monooxygenase (Photinus pyralis) (UniProt P08659)
- Sequence (P08659 whole entry, looked up): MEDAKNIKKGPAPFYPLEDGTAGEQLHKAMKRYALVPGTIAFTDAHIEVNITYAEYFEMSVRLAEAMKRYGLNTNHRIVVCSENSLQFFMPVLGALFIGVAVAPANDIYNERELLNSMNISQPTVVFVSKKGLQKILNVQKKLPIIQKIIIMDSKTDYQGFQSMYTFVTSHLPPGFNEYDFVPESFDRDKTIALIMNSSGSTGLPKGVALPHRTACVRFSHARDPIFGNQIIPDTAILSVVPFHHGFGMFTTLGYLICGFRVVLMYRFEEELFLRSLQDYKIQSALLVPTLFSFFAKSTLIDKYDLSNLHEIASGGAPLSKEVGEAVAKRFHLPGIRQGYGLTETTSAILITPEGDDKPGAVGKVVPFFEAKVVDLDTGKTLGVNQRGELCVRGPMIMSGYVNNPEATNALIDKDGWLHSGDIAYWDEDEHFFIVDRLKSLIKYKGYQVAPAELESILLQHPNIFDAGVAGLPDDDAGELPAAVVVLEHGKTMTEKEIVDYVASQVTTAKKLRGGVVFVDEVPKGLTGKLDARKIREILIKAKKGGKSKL
- Assay Notes: inhibition of purified Photinus pyralis luciferase – biochemical, luminescence, purified enzyme, 2006 set, primary screen (AID 1141);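 also: cell-free assay with purified firefly luciferase at 100 ng per well in PBS; test concentration not given here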
- Condition Notes: purified firefly luciferase, SteadyGlo luminescence, 30 min; higher = more signal, called active from +8 up or from −8 down
The source made the active and inactive calls.
Endpoint Name: z-score

Worked cases, z-score given:
Molecule: CCCCC(CC)C(O)C1C=CC2C(=O)NC(=O)C2N1Nc1ccccn1 (stereo not drawn)
Measured On: Luciferin 4-monooxygenase (Photinus pyralis) (UniProt P08659)
Endpoint Name: z-score
Result: -1.55 (inactive)

Molecule: O=C1NC(=O)C2C1C=CC(C(O)c1ccc(-c3ccccc3)s1)N2Nc1ccccn1 (stereo not drawn)
Measured On: Luciferin 4-monooxygenase (Photinus pyralis) (UniProt P08659)
Endpoint Name: z-score
Result: -0.86 (inactive)

Molecule: CC(=O)NCCCC[C@@H]1NC(=O)[C@H]2C[C@@H](C(=O)NCCCCCN)[C@@H](c3cccc(OCCO)c3)N2C1=O
Measured On: Luciferin 4-monooxygenase (Photinus pyralis) (UniProt P08659)
Endpoint Name: z-score
Result: -0.0548 (inactive)

Looking up C[C@@H]1ON(c2ccccc2)[C@H](c2ccccc2)[C@H]1C(=O)N1C(=O)OC[C@H]1Cc1ccccc1 , I see its z-score listed as 0.549 (inactive)

Looking up CC(C)NC(=O)[C@@]1(Cc2ccccc2I)c2ccccc2C(=O)N(Cc2ccccc2C(F)(F)F)[C@H]1c1ccc(CO)cc1 , I see its z-score listed as -0.793 (inactive)

Looking up COc1ccc([Si](C)(C)[C@@H]2[C@@H](CC(=O)N(CCO)Cc3ccccc3)O[C@]3(C(=O)N(Cc4ccc(N5CCOC5=O)cc4)c4ccccc43)[C@H]2C)cc1 , I see its z-score listed as -0.356 (inactive)

Looking up C=CCOC(=O)[C@H]1[C@@H]2C(=O)O[C@@H](c3ccccc3)[C@@H](c3ccccc3)N2[C@@H](c2ccc(OCCOC(=O)[C@H]3C[C@H]4C(=O)N[C@@H](CCCCN(C)C)C(=O)N4[C@H]3c3ccc(O)cc3)cc2)[C@]12C(=O)Nc1ccccc12 , I see its z-score listed as -0.552 (inactive)

Looking up COCCOC(=O)N1C(=O)[C@@]2(c3cc(C#CC4(O)CCCCCC4)ccc31)[C@H](C(=O)N1CCc3cc(OC)c(OC)cc3C1)[C@H]1C(=O)O[C@H](c3ccccc3)[C@H](c3ccccc3)N1[C@@H]2c1ccccc1OCCO , I see its z-score listed as -1.72 (inactive)

Looking up CCCNC(=O)[C@@H]1c2ccccc2C(=O)N(CC23CC4CC(CC(C4)C2)C3)[C@H]1c1ccc(CO)cc1 , I see its z-score listed as 0.411 (inactive)

Looking up CC(C)=CCCC(C)=CC(O)C1C=CC2C(=O)N(c3ccccc3)C(=O)C2N1Nc1ccc([N+](=O)[O-])cc1 (stereo not drawn) , I see its z-score listed as 0.453 (inactive)

Looking up CCCCCCC#C[Si](O[C@H](c1ccccc1)c1cn(Cc2cccc(Cl)c2)nn1)(C(C)C)C(C)C , I see its z-score listed as 0.163 (inactive)

Looking up CN(C)CCCN1C(=O)[C@@]2(Cc3ccccc31)c1ccccc1C(=O)N(Cc1ccccc1)[C@H]2c1ccc(CO)cc1 , I see its z-score listed as 1.09 (inactive)

Looking up COc1ccc(C#Cc2ccc3c(c2)[C@]2(C(=O)N3)[C@H](c3ccc(OCCO)cc3)N3[C@H](c4ccccc4)[C@H](c4ccccc4)OC(=O)[C@H]3[C@@H]2C(=O)N2CCN(c3ncccn3)CC2)cc1 , I see its z-score listed as 0.713 (inactive)
